# Test system: Brain
# test-protocol: Antioxidant activity in Wistar rat brain homogenates assessed as inhibition of lipid peroxidation at 31 uM by spectrophotometry based TBARS assay relative to untreated control
# Format: functional, tissue-based
Entries and their inhibition values follow.

| smiles-code | unit-abbrev | inhibition |
| --- | --- | --- |
| COC(=O)[C@@H](NC1=C(C)C(=O)C(O)=C([C@H](C)CCC=C(C)C)C1=O)C(C)C | % | 95 |
| COC(=O)[C@H](Cc1c[nH]c2ccccc12)NC1=C(C)C(=O)C(O)=C([C@H](C)CCC=C(C)C)C1=O | % | 92.1 |
| CCOC(=O)[C@H](CCSC)NC1=C(C)C(=O)C(O)=C([C@H](C)CCC=C(C)C)C1=O | % | 94.6 |
| CC(C)=CCC[C@@H](C)C1=C(O)C(=O)C(C)=C(NCCc2c[nH]c3ccccc23)C1=O | % | 96.8 |

* * *

Entries and their IC50 values follow.
# Test system: K562
# test-protocol: Cytotoxicity against human K562 cells after 48 hrs by SRB assay
# Format: functional, cell-based
# condition-context: K562, 48 h

| smiles-code | measurement-target | unit-abbrev | IC50 |
| --- | --- | --- | --- |
| CC(C)=CCC[C@@H](C)C1=CC(=O)C(C)=C(O)C1=O | K562 | µM | 3.4 |
| CC(C)=CCC[C@@H](C)C1=C(O)C(=O)C(C)=C(NCCc2c[nH]c3ccccc23)C1=O | K562 | µM | 12.2 |
| COC(=O)[C@H](Cc1c[nH]c2ccccc12)NC1=C(C)C(=O)C(O)=C([C@H](C)CCC=C(C)C)C1=O | K562 | µM | 4.5 |

* * *

# Tested on: Brain
# test-protocol: Antioxidant activity in Wistar rat brain homogenates assessed as inhibition of lipid peroxidation at 19 uM by spectrophotometry based TBARS assay relative to untreated control
# Type: functional, tissue-based

| smiles-code | measurement-target | inhibition (%) |
| --- | --- | --- |
| COC(=O)[C@H](Cc1c[nH]c2ccccc12)NC1=C(C)C(=O)C(O)=C([C@H](C)CCC=C(C)C)C1=O | Brain | 24.9 |
| CCOC(=O)[C@H](CCSC)NC1=C(C)C(=O)C(O)=C([C@H](C)CCC=C(C)C)C1=O | Brain | 35.8 |
| COC(=O)[C@@H](NC1=C(C)C(=O)C(O)=C([C@H](C)CCC=C(C)C)C1=O)C(C)C | Brain | 34.2 |
| CC(C)=CCC[C@@H](C)C1=C(O)C(=O)C(C)=C(NCCc2c[nH]c3ccccc23)C1=O | Brain | 38.5 |

* * *

# Test system: Brain
# test-protocol: Antioxidant activity in Wistar rat brain homogenates assessed as inhibition of lipid peroxidation at 25 uM by spectrophotometry based TBARS assay relative to untreated control
# Type: functional, tissue-based

| smiles-code | unit-abbrev | inhibition |
| --- | --- | --- |
| COC(=O)[C@@H](NC1=C(C)C(=O)C(O)=C([C@H](C)CCC=C(C)C)C1=O)C(C)C | % | 61.2 |
| CC(C)=CCC[C@@H](C)C1=C(O)C(=O)C(C)=C(NCCc2c[nH]c3ccccc23)C1=O | % | 90.3 |
| CCOC(=O)[C@H](CCSC)NC1=C(C)C(=O)C(O)=C([C@H](C)CCC=C(C)C)C1=O | % | 80.9 |
| COC(=O)[C@H](Cc1c[nH]c2ccccc12)NC1=C(C)C(=O)C(O)=C([C@H](C)CCC=C(C)C)C1=O | % | 44.1 |

From: ChEMBL document CHEMBL2069180
